Measured Neutralization titer SK50, listed per entry.
- experimental system: HA of virus A/Johannesburg/33/94 (H3N2) (influenza A virus (H3N2))
- assay summary: cell-based or functional assay

Incoming: Reported Neutralization titer SK50 for CR8018 (antibody, V domains shown) VH: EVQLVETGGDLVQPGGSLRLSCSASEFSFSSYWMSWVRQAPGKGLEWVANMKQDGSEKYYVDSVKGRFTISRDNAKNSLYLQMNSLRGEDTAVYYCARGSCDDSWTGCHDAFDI VL: QSALTQPASVSGSPGQSITISCTGTSSDVGGYNYVSWYQQHPGKAPKLMIYEVSHRPSGVSNRFSGSKSGSTASLTISGLQSEDEADYYCSSYTGEGPLGV : what is it?
Outgoing: > 40 µg/mL

Now for a further binder.
Incoming: Reported Neutralization titer SK50 for CR8015 (antibody, V domains shown) VH: QVQLQESGGDLVQPGGSLRLSCSASEFSFSSYWMSWVRQAPGKGLEWVANMKQDGSEKYYVDSVKGRFTISRDNAKNSLYLQMNSLRGEDTAVYYCARGSCDDSWTGCHDAFDI VL: VLTQPPSVSVAPGQTAKITCGGDNIGRKSVHWYQQKPGLAPVLVVNDNSDRPSGIPARFSGSNSGNTATLTISRVEAGDEADYYCHVWGSSRDHYV : what is it?
Outgoing: > 40 µg/mL
